These measurements were taken from ChEMBL document CHEMBL1201862.

Quick list: GI50 per entry.
tested on: LXFL 529; test: NCI tumour cell line growth inhibition, 48 h
Calls of active or inactive are those of the source. No stated cut-off is given here; in the data, active = GI50 up to about 1.1 µM and inactive = higher.
measured-endpoint: GI50

{"molecule": "C1CCN(c2nsc(N3CCCCC3)n2)CC1", "measured-endpoint": "GI50", "assay-result": "> 100 µM (inactive)"}
{"molecule": "CC1=C[C@]2(CC(C)C3C(CC4(C)C5CCC6C(C)(C)C(=O)CC[C@@]67C[C@@]57CC[C@]34C)O2)OC1=O (stereo not given in full)", "measured-endpoint": "GI50", "assay-result": "7.52 µM (inactive)"}
{"molecule": "COc1ccc(C2NCCc3c2[nH]c2ccccc32)cc1 (stereo not given)", "measured-endpoint": "GI50", "assay-result": "95.3 µM (inactive)"}
{"molecule": "O=NN(CCCl)C(=O)NCc1ccc[n+]([O-])c1", "measured-endpoint": "GI50", "assay-result": "> 100 µM (inactive)"}
{"molecule": "COC(=O)CCC1CCc2c(OC)ccc(O)c2C1=O (stereo not given)", "measured-endpoint": "GI50", "assay-result": "> 100 µM (inactive)"}
{"molecule": "COc1cccc(NC(=O)C(C)(C)C)c1SSc1c(NC(=O)C(C)(C)C)cccc1OC", "measured-endpoint": "GI50", "assay-result": "15.8 µM (inactive)"}
{"molecule": "CSc1nc2c(nc(N)n2C2OC(CO)C(O)C(O)C2O)c(=O)n1C (stereo not given)", "measured-endpoint": "GI50", "assay-result": "> 100 µM (inactive)"}
{"molecule": "Clc1ccc2c(c1)[nH]c1c2nc2sccn21", "measured-endpoint": "GI50", "assay-result": "> 100 µM (inactive)"}
{"molecule": "CC(C)C1COC(C(C)(C)C2=N[C@@H](C(C)C)CO2)=N1 (stereo not given in full)", "measured-endpoint": "GI50", "assay-result": "> 100 µM (inactive)"}
{"molecule": "CN(C)C(=O)Nc1c([N+](=O)[O-])cc(C(F)(F)F)cc1[N+](=O)[O-]", "measured-endpoint": "GI50", "assay-result": "40.9 µM (inactive)"}
{"molecule": "CC(C)CN(CC(C)C)C(=O)C1CCCC[C@@H]1C(=O)O (stereo not given in full)", "measured-endpoint": "GI50", "assay-result": "> 100 µM (inactive)"}
{"molecule": "CC(=O)O[C@]12CCCCCCC1C1(O)C(O)CCC[C@H]12 (stereo not given in full)", "measured-endpoint": "GI50", "assay-result": "> 100 µM (inactive)"}
{"molecule": "CNC(=O)OC1/C(C)=C\\C(C)C(O)C(OC)CC(C)CC2=C(OC)C(=O)C=C(C2=O)N(C)C(=O)/C(C)=C/C=C\\C1OC (stereo not given)", "measured-endpoint": "GI50", "assay-result": "4.86 µM (inactive)"}
{"molecule": "CC(=O)NC(CCCN)C(=O)NCc1ccccc1 (stereo not given)", "measured-endpoint": "GI50", "assay-result": "> 100 µM (inactive)"}
{"molecule": "COc1cc2c(cc1OC)[C@@H](Nc1ccc(F)cc1)C1COC(=O)[C@@H]1C2c1cc(OC)c(O)c(OC)c1 (stereo not given in full)", "measured-endpoint": "GI50", "assay-result": "19.6 µM (inactive)"}
